# System: HCT/VP35
# Assay overview: In vitro cytotoxicity assay, HCT/VP35 etoposide-resistant human colon tumor
# Type: cell-based
# Conditions: HCT/VP35, resistant to etoposide; two values per compound; four-fold serial dilution
Param label: returns rule met when In vitro cytotoxicity IC50, HCT/VP35 < 50 µg/mL, returns rule not met otherwise, including exact equality.

Molecule	Group label
COc1cc([C@@H]2c3cc4c(cc3[C@@H](O[C@@H]3O[C@@H]5CO[C@@H](C)O[C@H]5[C@H](O)[C@H]3O)[C@H]3COC(=O)[C@H]23)OCO4)cc([N+]#N)c1[O-] [Example 25]	rule not met
C[C@@H]1OC[C@H]2O[C@@H](O[C@@H]3c4cc5c(cc4[C@@H](C4=CC(=O)C(=O)C(NC(=O)NCCCl)=C4)[C@H]4C(=O)OC[C@@H]43)OCO5)[C@H](O)[C@@H](O)[C@@H]2O1 [Example 29]	rule not met
COc1cc([C@@H]2c3cc4c(cc3[C@@H](O[C@@H]3O[C@@H]5CO[C@@H](C)O[C@H]5[C@H](O)[C@H]3O)[C@H]3COC(=O)[C@H]23)OCO4)cc(NC(C)=O)c1O [Example 7, 3'-Acetylamino-3'-desmethoxy etoposide]	rule not met
COc1cc([C@@H]2c3cc4c(cc3[C@@H](O[C@@H]3O[C@@H]5CO[C@@H](C)O[C@H]5[C@H](O)[C@H]3O)[C@H]3COC(=O)[C@H]23)OCO4)cc(N=Cc2cc(OC)c(OC)c(OC)c2)c1O [Example 21]	rule met
CNc1cc([C@@H]2c3cc4c(cc3[C@@H](O[C@@H]3O[C@@H]5CO[C@@H](C)O[C@H]5[C@H](O)[C@H]3O)[C@H]3COC(=O)[C@H]23)OCO4)cc(OC)c1O [Example 4, 3'-Desmethoxy-3'-methylamine etoposide]	rule met
COc1cc([C@@H]2c3cc4c(cc3[C@@H](O[C@@H]3O[C@@H]5CO[C@@H](C)O[C@H]5[C@H](O)[C@H]3O)[C@H]3COC(=O)[C@H]23)OCO4)cc(NC(=O)NCc2ccccc2)c1O [Example 11]	rule met
COc1cc([C@@H]2c3cc4c(cc3[C@@H](O[C@@H]3O[C@@H]5CO[C@@H](C)O[C@H]5[C@H](O)[C@H]3O)[C@H]3COC(=O)[C@H]23)OCO4)cc(NCN2C(=O)CCC2=O)c1O [Example 13]	rule met
COc1cc([C@@H]2c3cc4c(cc3[C@@H](O[C@@H]3O[C@@H]5CO[C@@H](C)O[C@H]5[C@H](O)[C@H]3O)[C@H]3COC(=O)[C@H]23)OCO4)cc2ncoc12 [Example 27, Etoposide benzoxazole derivative]	rule met
CC(=O)NC1=CC([C@@H]2c3cc4c(cc3[C@@H](O[C@@H]3O[C@@H]5CO[C@@H](C)O[C@H]5[C@H](O)[C@H]3O)[C@H]3COC(=O)[C@@H]32)OCO4)=CC(=O)C1=O [Example 28]	rule not met
